Each entry below carries its reported CRF2R EC50.
- study target: T1, corticotropin releasing factor 2 receptor
- T1 sequence (Q13324 whole entry, species assumed, looked up): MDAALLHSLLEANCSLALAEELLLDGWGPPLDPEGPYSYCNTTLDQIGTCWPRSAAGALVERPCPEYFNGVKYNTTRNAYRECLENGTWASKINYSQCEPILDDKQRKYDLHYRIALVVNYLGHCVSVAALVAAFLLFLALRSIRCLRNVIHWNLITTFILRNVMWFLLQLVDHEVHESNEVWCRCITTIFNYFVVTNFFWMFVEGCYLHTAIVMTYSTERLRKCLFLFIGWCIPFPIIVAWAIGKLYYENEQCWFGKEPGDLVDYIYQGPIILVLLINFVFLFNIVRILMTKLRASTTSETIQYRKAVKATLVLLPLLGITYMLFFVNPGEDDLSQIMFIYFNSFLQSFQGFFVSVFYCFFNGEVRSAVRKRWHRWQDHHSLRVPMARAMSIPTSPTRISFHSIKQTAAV
- protocol summary: cell-based or functional assay
Ends that are not written are not given here.
Only the number, expressed in nM, is required.

Below, 4 binders whose answers are already recorded.
NDDPPISIDLPTYLLRNMIEMARIENEREQAGLNAKYLAEV-NH2 [SEQ ID NO 266]	100
ZGPPISIDLPLHLLRKMIEIEKQEKEKQQATTNARLLDTV (C-terminal amide) [SEQ ID NO 238]	16.7
IVLSLDVPIGLLQILLEKAAAEAEAAAKAAQEQILAHV-NH2 [SEQ ID NO 366]	100
PSLSIDLPLILLRTLLELEKTQSQRERAEQNARIFARV-NH2 [SEQ ID NO 332]	9.95

Q: Field request: CRF2R EC50 | item: ZGPPISIDLPQFLLRKMIEIEKQEKEKQQAANNRLLLDTI (C-terminal amide) [SEQ ID NO 221]
Ans: 8.5

Q: Please answer likewise for IVLSLDVPIGLLQKVIEIEKQEKEKQQATTNARILARV-NH2 [SEQ ID NO 300]
Ans: 17.1
